Experimental target: TLR8 (Homo sapiens, UniProt Q9NR97)
Construct: Human peripheral blood mononuclear cells (PBMCs) consist of lymphocytes, monocytes and dendritic cells that express TLR7, TLR8 and TLR9; endogenous in cells
Sequence (Q9NR97 27-1041): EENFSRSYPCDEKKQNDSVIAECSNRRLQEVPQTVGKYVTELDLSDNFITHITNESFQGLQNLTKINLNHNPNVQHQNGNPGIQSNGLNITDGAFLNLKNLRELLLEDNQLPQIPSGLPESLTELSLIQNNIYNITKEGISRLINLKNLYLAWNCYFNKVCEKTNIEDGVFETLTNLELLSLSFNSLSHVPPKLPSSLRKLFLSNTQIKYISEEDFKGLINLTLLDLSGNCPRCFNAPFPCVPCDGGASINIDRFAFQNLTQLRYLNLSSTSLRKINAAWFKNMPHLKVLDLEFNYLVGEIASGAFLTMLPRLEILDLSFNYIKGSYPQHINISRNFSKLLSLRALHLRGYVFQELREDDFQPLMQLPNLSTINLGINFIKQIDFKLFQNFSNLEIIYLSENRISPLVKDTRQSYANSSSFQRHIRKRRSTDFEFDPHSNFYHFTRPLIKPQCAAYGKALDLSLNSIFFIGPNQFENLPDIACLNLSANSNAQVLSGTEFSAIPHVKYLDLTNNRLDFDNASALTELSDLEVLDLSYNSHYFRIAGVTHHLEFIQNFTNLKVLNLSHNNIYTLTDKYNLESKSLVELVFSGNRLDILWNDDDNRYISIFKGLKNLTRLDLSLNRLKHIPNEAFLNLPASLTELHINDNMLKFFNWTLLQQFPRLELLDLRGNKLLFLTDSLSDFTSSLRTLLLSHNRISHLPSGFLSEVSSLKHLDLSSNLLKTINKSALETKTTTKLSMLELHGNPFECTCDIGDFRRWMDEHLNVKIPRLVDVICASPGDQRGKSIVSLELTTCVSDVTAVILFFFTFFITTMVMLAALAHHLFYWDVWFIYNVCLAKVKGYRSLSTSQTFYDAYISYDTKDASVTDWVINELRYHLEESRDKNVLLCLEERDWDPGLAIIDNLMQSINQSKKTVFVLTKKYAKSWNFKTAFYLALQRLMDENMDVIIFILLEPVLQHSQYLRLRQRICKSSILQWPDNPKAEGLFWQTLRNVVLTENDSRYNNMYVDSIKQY
Test summary: TLR8 human PBMC cell-based assay (antagonist, Compound A stimulated cytokine release)
Condition details: human PBMCs; TLR8 agonist Compound A 800 nM, 6 hours; cytokines (TNFa and IL 12p40) in supernatant; read-out: TLR-8 EC50
Observation type: EC50 (nM)

Reference set (6 entries):
Compound	Observation type	Value units	Reported value
Cc1cc(-c2[nH]c3cc(C4CC(C)(C)NC(C)(C)C4)sc3c2C(C)C)cn2ncnc12	EC50	nM	19.5
Cc1cc(-c2[nH]c3cc(C(=O)N4CC[C@@H](CN)C4)sc3c2C(C)C)cn2ncnc12	EC50	nM	27.2
CCc1c(-c2cc(C)c3ncnn3c2)[nH]c2cc(-c3nc4ccc(N5CCNCC5)cc4[nH]3)sc12	EC50	nM	66.7
CC(C)c1c(-c2ccc3nccn3c2)[nH]c2cc(C(=O)N3CCNCC3)sc12	EC50	nM	131
Cc1cc(-c2[nH]c3cc(C(=O)N4CCNC[C@@H]4C)sc3c2C(C)C)cn2ncnc12	EC50	nM	10.5
Cc1cc(-c2[nH]c3cc(C4CC5CCCC(C4)N5CC(N)=O)sc3c2C(C)C)cn2ncnc12 (stereo not drawn)	EC50	nM	54

[1] Cc1cc(-c2[nH]c3cc(C(=O)N4CCC5(CCN(CC(N)=O)CC5)C4)sc3c2C(C)C)cn2ncnc12
[2] Cc1cc(-c2[nH]c3cc(C(=O)N(C)[C@H]4[C@@H]5CNC[C@@H]54)sc3c2C(C)C)cn2ncnc12
[3] Cc1cc(-c2[nH]c3cc(C4=NC5(CCN(CC(N)=O)CC5)CO4)sc3c2C(C)C)cn2ncnc12
hey, can you rank those compounds up there by EC50? biggest number first please Answer format: the labels, ordered as requested.
3, 1, 2
(3: 116 nM, 1: 22.2 nM, 2: 14 nM)

[1] CCN1C[C@@H](N(C)C(=O)c2cc3[nH]c(-c4cn5ncnc5c(C)c4C)c(C(C)C)c3s2)C[C@@H](C(F)(F)F)C1
[2] Cc1cc(-c2[nH]c3cc(C4CCN(C(=O)C5CCN(C)C5)CC4)sc3c2C(C)C)cn2ncnc12 (stereo not drawn)
Could you tell me which of 1 and 2 has the lower EC50 reading? Return value: the label identifying the chosen record.
2
